- Measured target: purified full-length recombinant human ERα (Homo sapiens, UniProt P03372)
- Sequence (P03372 1-595): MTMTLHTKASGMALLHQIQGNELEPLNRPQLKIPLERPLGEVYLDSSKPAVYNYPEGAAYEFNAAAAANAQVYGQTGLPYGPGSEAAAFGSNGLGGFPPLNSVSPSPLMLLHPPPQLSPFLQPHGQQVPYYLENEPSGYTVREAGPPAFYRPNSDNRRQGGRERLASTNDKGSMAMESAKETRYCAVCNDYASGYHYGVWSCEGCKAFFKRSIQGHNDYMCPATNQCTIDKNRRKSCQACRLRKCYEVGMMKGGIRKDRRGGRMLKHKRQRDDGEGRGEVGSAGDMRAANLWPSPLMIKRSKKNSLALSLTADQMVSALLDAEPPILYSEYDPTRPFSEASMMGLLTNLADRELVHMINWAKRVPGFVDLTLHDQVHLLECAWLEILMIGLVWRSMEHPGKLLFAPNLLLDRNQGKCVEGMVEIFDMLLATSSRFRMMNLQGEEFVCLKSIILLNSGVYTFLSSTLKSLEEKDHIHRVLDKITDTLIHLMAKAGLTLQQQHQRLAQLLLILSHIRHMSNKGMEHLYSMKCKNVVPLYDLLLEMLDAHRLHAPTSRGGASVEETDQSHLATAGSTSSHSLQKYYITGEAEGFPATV
- Test protocol: Estrogen receptor α competitive radiometric binding assay ([3H]-E2)
Quantity: IC50 (nM)

# Compound, Measured target, Recorded result
records = [
    ("N#CC(Cc1ccc(O)c(O)c1)c1noc2cc(O)ccc12 (stereo not drawn)", "purified full-length recombinant human ERα (Homo sapiens, UniProt P03372)", 1890),
    ("N#CC(Cc1ccc(O)cc1)c1noc2cc(O)ccc12 (stereo not drawn)", "purified full-length recombinant human ERα (Homo sapiens, UniProt P03372)", 67.5),
    ("N#CC(Cc1ccc(F)cc1)c1noc2cc(O)ccc12 (stereo not drawn)", "purified full-length recombinant human ERα (Homo sapiens, UniProt P03372)", 2300),
    ("Oc1ccc2c(C3CCCCC3)nsc2c1", "purified full-length recombinant human ERα (Homo sapiens, UniProt P03372)", 88.6),
]

P: Oc1ccc2c(C3CCCC3)n[nH]c2c1
Q: Cl.Oc1ccc2c(C34CC5CC(CC(C5)C3)C4)n[nH]c2c1 [Ex 31, hydrochloride]
R: Oc1ccc(Cc2noc3cc(O)ccc23)cc1
Q: Please list these compounds in decreasing order of IC50. Return value: ordered labels per request.
Result: R, P, Q

I: NS(=O)(=O)n1nc(C2CCCCC2)c2ccc(O)cc21
II: Oc1ccc2c(C3CCCCCC3)noc2c1
Q: Could you determine which record has the numerically smaller IC50? Candidates: I and II # answer = label of selected item
Result: II
(II: 75.3 nM, I: 1480 nM)

I: Oc1ccc2c(C3CCCCC3)n[nH]c2c1
II: Oc1ccc2c(C3CCCCC3)noc2c1
Q: # returns the entry with the larger IC50; inputs I and II # answer = label of selected item
Result: II
(II: 260 nM, I: 159 nM)
